For each of the molecules below, state its Ki.
target: BRD4 BD2 protein (Homo sapiens (Human)); assay: Fluorescence polarization binding affinity (Ki) with BRD4 BD2 protein
Give just the number in nM; leave the unit off.

*Q* Look up Ki for this molecule: CCN1CC=C(c2ccc3c(c2)C(Nc2ccc(F)c(Cl)c2)CCn2nnc(C)c2-3)CC1 (centres unmarked) [RD121, 2,2,2-trifluoroacetate]
*A* 31.8

*Q* Moving on to the next molecule: CCN1CC=C(c2ccc3c(c2)C(Nc2cc(Cl)ccc2F)CCn2nnc(C)c2-3)CC1 (centres unmarked) [RD123, 2,2,2-trifluoroacetate]
*A* 40.8

*Q* For CC(=O)N1CC=C(c2ccc3c(c2)C(N(C(C)=O)c2cccc(Cl)c2)CCn2nnc(C)c2-3)CC1 (centres unmarked) then?
*A* 1740

*Q* Try this molecule too: Cc1nnn2c1-c1ccc(C3=CCN(C4CCCCC4)CC3)cc1C(Nc1cccc(Cl)c1F)CC2 (centres unmarked) [RD178, 2,2,2-trifluoroacetate]
*A* 32.7

*Q* Next record, please: Cc1nnn2c1-c1ccc(C3=CCN(C4CCC4)CC3)cc1C(Nc1cccc(Cl)c1F)CC2 (centres unmarked) [RE30, 2,2,2-trifluoroacetate]
*A* 30.2
